Readings of IC50 for the listed molecules
EXPERIMENTAL SYSTEM: human TLR9 (Homo sapiens)
MEASUREMENT PROTOCOL: HEK293-Blue-hTLR-9 cells assay (SEAP reporter, ODN2006 stimulation)
TEST SETTINGS: HEK293-Blue-hTLR9 cells, ODN2006, 20 hrs

Worked examples follow.
Cc1ccc(N2C[C@@H](C)C[C@@H](N)C2)c2cccnc12 [Example 15]    14 µM
C[C@@H]1CN(c2ccc(Cl)c3ncccc23)C[C@H](C(=O)NCC2CN(C)CCO2)O1 (stereo partly shown) [Example 26]    46 µM
C[C@@H]1CN(c2ccc(C(F)(F)F)c3ncccc23)C[C@H](C(=O)NC2CNCC(F)(F)C2)O1 (stereo partly shown) [Example 28]    > 100 µM
C[C@@H]1CN(c2ccc(C(F)(F)F)c3ncccc23)C[C@H](C(=O)NC2C3CCC2CNC3)O1 (stereo partly shown) [Example 31]    9.2 µM
C[C@@H]1CN(c2ccc(C(F)(F)F)c3ncccc23)C[C@H](C(=O)NC2CNC[C@@H]2F)O1 (stereo partly shown) [Example 2]    51.8 µM
C[C@@H]1CN(c2ccc(C(F)(F)F)c3ncccc23)C[C@H](C(=O)NC2CC3CCC(C2)N3)O1 (single isomer, unassigned) [Example 47A]    10.1 µM

Now examine the next entry.
Query :: Requested read-out: IC50. Entry: C[C@@H]1CN(c2ccc(C(F)(F)F)c3ncccc23)C[C@H](C(=O)NC2CN(C)CC23CC3)O1 (stereo partly shown) [Example 9]
Result :: 10.9 µM

----------
EXPERIMENTAL SYSTEM: human TLR9 (Homo sapiens, UniProt Q9NR96)
Construct: host or cells: HEK293 (HEK-Blue hTLR9)
Sequence (Q9NR96 26-1032): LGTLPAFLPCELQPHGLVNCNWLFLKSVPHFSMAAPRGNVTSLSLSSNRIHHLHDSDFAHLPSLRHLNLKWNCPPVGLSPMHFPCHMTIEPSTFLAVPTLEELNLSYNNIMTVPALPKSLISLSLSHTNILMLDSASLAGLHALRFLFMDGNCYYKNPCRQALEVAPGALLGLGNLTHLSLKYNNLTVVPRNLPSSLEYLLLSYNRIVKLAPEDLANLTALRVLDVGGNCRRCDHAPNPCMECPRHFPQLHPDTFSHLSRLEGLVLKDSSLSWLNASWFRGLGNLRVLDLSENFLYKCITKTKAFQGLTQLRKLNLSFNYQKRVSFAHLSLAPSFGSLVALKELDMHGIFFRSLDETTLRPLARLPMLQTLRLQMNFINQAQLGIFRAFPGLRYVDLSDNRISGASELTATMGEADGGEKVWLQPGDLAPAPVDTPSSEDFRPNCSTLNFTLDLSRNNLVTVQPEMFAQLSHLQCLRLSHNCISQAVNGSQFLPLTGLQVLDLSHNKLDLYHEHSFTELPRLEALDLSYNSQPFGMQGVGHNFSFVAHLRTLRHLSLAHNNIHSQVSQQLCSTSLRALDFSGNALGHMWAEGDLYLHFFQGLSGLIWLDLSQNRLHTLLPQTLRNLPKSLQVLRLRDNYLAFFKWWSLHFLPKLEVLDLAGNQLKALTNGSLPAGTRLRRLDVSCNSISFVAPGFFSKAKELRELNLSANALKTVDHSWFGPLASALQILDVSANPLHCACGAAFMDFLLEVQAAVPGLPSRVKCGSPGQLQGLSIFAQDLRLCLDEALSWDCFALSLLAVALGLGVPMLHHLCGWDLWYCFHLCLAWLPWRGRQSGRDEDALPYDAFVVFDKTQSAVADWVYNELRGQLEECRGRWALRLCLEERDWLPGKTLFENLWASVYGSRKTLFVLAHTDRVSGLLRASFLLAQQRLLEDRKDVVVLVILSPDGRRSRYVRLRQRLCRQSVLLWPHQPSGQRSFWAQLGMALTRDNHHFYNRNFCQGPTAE
MEASUREMENT PROTOCOL: HEK293-Blue-hTLR-9 cells assay (SEAP reporter, ODN2006 stimulation)
Format: cell-based
TEST SETTINGS: HEK293-Blue-hTLR9 cells, ODN2006, 20 hrs
Each item that follows carries a reported pIC50.
Recall that pIC50 is obtained by taking minus log10 of the concentration measured in molar.

These recorded examples may help you get a feel for the data.
C[C@@H]1CN(c2ccc(C(F)(F)F)c3ncccc23)C[C@H](C(=O)NC2CC3CNCC32)O1 (single isomer, unassigned) [Example 49B]    5.14
C[C@@H]1CN(c2ccc(C(F)(F)F)c3ncccc23)C[C@H](C(=O)NC2C3CNCC2COC3)O1 (single isomer, unassigned) [Example 46A]    4.64
C[C@@H]1CN(c2ccc(C(F)(F)F)c3ncccc23)C[C@H](C(=O)N[C@@H]2CNC[C@@H]2F)O1 (single isomer, unassigned)    4.39
C[C@@H]1CN(c2ccc(C(F)(F)F)c3ncccc23)C[C@H](C(=O)NC2CC3CNCC32)O1 (single isomer, unassigned) [Example 49C]    5.11
CC(NC(=O)[C@H]1CN(c2ccc(C(F)(F)F)c3ncccc23)C[C@@H](C)O1)C1CN(C)CCO1 (single isomer, unassigned) [Example 35A]    4.37

Query :: What measured pIC50 goes with C[C@@H]1CN(c2ccc(C(F)(F)F)c3ncccc23)C[C@H](C(=O)NC2C[C@H]3C[C@@H]2CN3)O1 (stereo partly drawn) ?
Result :: 4.80

Query :: Query: pIC50; subject: C[C@@H]1CN(c2ccc(Br)c3ncccc23)C[C@H](C(=O)NC2CNCC2F)O1 (stereo partly drawn)
Result :: 4.63

Query :: // pIC50 lookup, key: C[C@@H]1CN(c2ccc(C(F)(F)F)c3ncccc23)C[C@H](C(=O)NCC2CN(C)CCO2)O1 (stereo partly drawn)
Result :: 4.09
